- Assay Target: human GzmB (hGzmB) (Homo sapiens)
- Construct: For active GzmB vs pro-GzmB, p < 0.0001
- Method Notes: Fluorescence assay with recombinant hGzmB (fluorogenic response, time course)
- Type: biochemical
- Condition Set: probe 25 μM, hGzmB 20 nM; Data 3
Where no end group is shown, it is not given here.
Measurement Type: t50 (min)
# output: bare number, implied unit min

Some substances with recorded t50:
IEPDSL [H3, FRET hexapeptide IEPDSL]: 14
IEPDSG [H2, FRET hexapeptide IEPDSG]: 14
IEPDAG [H1, FRET hexapeptide IEPDAG]: 36
IEPDAL [H5, FRET hexapeptide IEPDAL with BODIPY-FL fluorophore at the N-terminal end and Dabcyl quencher]: 7

Note: attention shifts to another entry.
The recorded t50 for entry IEPDWL [H4, FRET hexapeptide IEPDWL] equals 56

----------
- Test system: mKate-E0771 cells
- Method Notes: MTT cell viability assay
- Type: cell-based, mouse
- Condition Set: H5 25 (head prints mM), 1 h, 37 °C; Data 1
Where no end group is shown, it is not given here.
Measurement Type: Cell viability (MTT), normalized to untreated cells (%)
# output: bare number, implied unit %

The recorded Cell viability (MTT), normalized to untreated cells for entry IEPDAL [H5, FRET hexapeptide IEPDAL with BODIPY-FL fluorophore at the N-terminal end and Dabcyl quencher] equals 107

----------
- Assay Target: human GzmB (hGzmB) (Homo sapiens, UniProt P10144)
- Construct: For active GzmB vs pro-GzmB, p < 0.0001
- Sequence (P10144 21-247): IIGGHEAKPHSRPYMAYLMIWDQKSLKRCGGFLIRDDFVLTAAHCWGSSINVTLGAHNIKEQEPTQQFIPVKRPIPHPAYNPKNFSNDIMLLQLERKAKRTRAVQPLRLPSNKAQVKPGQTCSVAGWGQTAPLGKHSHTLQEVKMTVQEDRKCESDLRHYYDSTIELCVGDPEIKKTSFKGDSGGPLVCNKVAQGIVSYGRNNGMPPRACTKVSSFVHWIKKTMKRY
- Method Notes: Fluorescence assay with recombinant hGzmB (fluorogenic response, time course)
- Assay type: biochemical
- Condition Set: probe 25 μM, hGzmB 20 nM; Data 1
Where no end group is shown, it is not given here.
Measurement Type: t50

IEPDAG [H1, FRET hexapeptide IEPDAG]: 32 min
IEPDAL [H5, FRET hexapeptide IEPDAL with BODIPY-FL fluorophore at the N-terminal end and Dabcyl quencher]: 7 min
IEPDWL [H4, FRET hexapeptide IEPDWL]: 51 min
IEPDSG [H2, FRET hexapeptide IEPDSG]: 13 min

Note: attention shifts to another entry.
The recorded t50 for entry IEPDSL [H3, FRET hexapeptide IEPDSL] equals 15 min

----------
- Tested on: mKate-E0771 cells
- Method Notes: MTT cell viability assay
- Assay type: cell-based, mouse
- Condition Set: H5 3.1 (head prints mM), 1 h, 37 °C; Data 5
Where no end group is shown, it is not given here.
Measurement Type: Cell viability (MTT), normalized to untreated cells (%)
# output: bare number, implied unit %

The recorded Cell viability (MTT), normalized to untreated cells for entry IEPDAL [H5, FRET hexapeptide IEPDAL with BODIPY-FL fluorophore at the N-terminal end and Dabcyl quencher] equals 94

----------
- System: mKate-E0771 cells
- Method Notes: MTT cell viability assay
- Assay type: cell-based, mouse
- Condition Set: H5 12.5 (head prints mM), 1 h, 37 °C; Data 2
Where no end group is shown, it is not given here.
Measurement Type: Cell viability (MTT), normalized to untreated cells (%)
# output: bare number, implied unit %

The recorded Cell viability (MTT), normalized to untreated cells for entry IEPDAL [H5, FRET hexapeptide IEPDAL with BODIPY-FL fluorophore at the N-terminal end and Dabcyl quencher] equals 106
